assay: NCI Yeast Anticancer Drug Screen. Data for the cln2 rad14 strain (AID 165);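 also: 0% = growth equal to vehicle treated cultures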
stated_conditions: S. cerevisiae cln2 rad14 strain, at 50.0 µM, stronger effect = higher value
This is part of a sample that, as a whole, favours compounds with a hit. Of some 79,000 tested, about 15% had one in any assay.
Parameter: growth inhibition. Scope: all listed entries.
Note: unit % is implicit; provide only the numeric part.

Completed entries (count: 7):
Exercise: Supply growth inhibition value. Item: "COC(=O)c1ccccc1NC(=O)C(=O)NNC(=O)c1ccncc1"
Solution: 7.55

Exercise: Supply growth inhibition value. Item: "O=C1C(O)=CC(=C(c2ccccc2)c2ccccc2)c2cc(Br)ccc21"
Solution: 8.9

Exercise: Supply growth inhibition value. Item: "BrC/C(=N\N1CCCCC1)c1ccc(Br)cc1"
Solution: 24.6

Exercise: Supply growth inhibition value. Item: COc1ccc(/C=C/C2=CC(=O)CC(c3ccc(OC)c(OC)c3)C2)cc1OC (stereo not drawn)
Solution: -35.6

Exercise: Supply growth inhibition value. Item: "CC1=NS(=O)(=O)c2ccccc2N1"
Solution: 15.9

Exercise: Supply growth inhibition value. Item: "Cc1ccc2cc(C)c(C)cc2c1"
Solution: 16.1

Exercise: Supply growth inhibition value. Item: "Nc1nc(N)c(NC(=O)CCCO)c(=O)[nH]1"
Solution: 6.8

Let us move to another entry and its growth inhibition.
Exercise: Supply growth inhibition value. Item: NC1c2c(Cl)sc(Cl)c2C(=O)C1O (stereo not drawn)
Solution: -3.6

----------
Parameter: growth inhibition. Scope: all listed entries.
assay: NCI Yeast Anticancer Drug Screen. Data for the bub3 strain (AID 167)
stated_conditions: S. cerevisiae bub3 mutant strain, at 50.0 µM, stronger effect = higher value
Compounds without any hit were thinned out: in the full panel of roughly 79,000, 15% have a hit.
Note: unit % is implicit; provide only the numeric part.

Completed entries (count: 3):
Exercise: Supply growth inhibition value. Item: "O=C(NO)c1c(F)c(F)c(C(=O)NO)c(F)c1F"
Solution: 9.65

Exercise: Supply growth inhibition value. Item: "C1=[N+](c2ccccc2)CCN1c1ccccc1"
Solution: -32.1

Exercise: Supply growth inhibition value. Item: "COC(=O)N1CCc2c(nc(N(C)CCO)[nH]c2=O)C1"
Solution: -30.1

New cases:
Exercise: Supply growth inhibition value. Item: CCC(C)C(N=C1N=CNC2=NC=NC12)C(=O)O (stereo not drawn)
Solution: -10.6

Exercise: Supply growth inhibition value. Item: "Cc1cc(N(CCC#N)CCC#N)ccc1/C=C(\NC(=O)/C=C/c1ccccc1)C(=O)N=[N+]=[N-]"
Solution: -21.1

Exercise: Supply growth inhibition value. Item: "CC(=O)c1ccc(C(C)=O)c(OCc2ccccc2)c1"
Solution: -5.95

Exercise: Supply growth inhibition value. Item: "CCn1c(=O)c2c3cc(OC(C)=O)ccc3oc2c2ccc(OC(C)=O)cc21"
Solution: 12.9

Exercise: Supply growth inhibition value. Item: CCCCCCCC(=O)N1C2CN3C4=C(C(=O)C(N)=C(C)C4=O)C(COC(N)=O)C3(OC)C21 (stereo not drawn)
Solution: 19.1

----------
Parameter: growth inhibition. Scope: all listed entries.
assay: NCI Yeast Anticancer Drug Screen. Data for the sgs1 mgt1 strain (AID 161);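 also: 0% = growth of cultures given vehicle only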
stated_conditions: S. cerevisiae sgs1 mgt1 strain, at 50.0 µM, stronger effect = higher value
Compounds without any hit were thinned out: in the full panel of roughly 79,000, 15% have a hit.
Note: unit % is implicit; provide only the numeric part.

Exercise: Supply growth inhibition value. Item: "CC(C)(CO)CN1CCCC1"
Solution: -4.05

Exercise: Supply growth inhibition value. Item: "Cc1cc(C)nc(NS(=O)(=O)c2ccc(NC(=O)c3cccc4c(Nc5ccc(S(=O)(=O)N=C(N)N)cc5)c5ccc(Cl)cc5nc34)cc2)n1"
Solution: 27.2

Exercise: Supply growth inhibition value. Item: "c1ccc2c(c1)CCc1cc3cc4c(nc3nc1-2)-c1ccccc1CC4"
Solution: -14.1

Exercise: Supply growth inhibition value. Item: "Cc1nn(C)c(=O)c2nn(-c3ccccc3)c(C)c12"
Solution: 14.8

Exercise: Supply growth inhibition value. Item: "CCc1cc(O)c([N+](=O)[O-])cc1[N+](=O)[O-]"
Solution: 21.1

New cases:
Exercise: Supply growth inhibition value. Item: CCCCN(CCCC)CC(C)O (stereo not given)
Solution: -22.4

Exercise: Supply growth inhibition value. Item: "Fc1ccc2nncc(/C=C/c3ccccn3)c2c1"
Solution: 4.2

Exercise: Supply growth inhibition value. Item: "FC(F)(F)C1=NCCN1"
Solution: -2.85

Exercise: Supply growth inhibition value. Item: "CNC(=S)/C(C(C)=O)=C(\C)Nc1ccccc1"
Solution: -8.05

Exercise: Supply growth inhibition value. Item: "Nc1cc(=O)c2n[nH]nc2[nH]1"
Solution: -17.1

Exercise: Supply growth inhibition value. Item: "N#CCCCCCCCCCC#N"
Solution: -47.4

Exercise: Supply growth inhibition value. Item: "Cc1nc(/N=C(/N)N(C)C)[nH]c(=O)c1C"
Solution: -11.6

----------
Parameter: growth inhibition. Scope: all listed entries.
assay: NCI Yeast Anticancer Drug Screen. Data for the mlh1 rad18 strain (AID 175)
stated_conditions: S. cerevisiae mlh1 rad18 strain growth inhibition; at 50.0 µM; stronger effect = higher value
About 79,000 compounds went through this panel and 15% of them were active in at least one assay; those are over-represented in the sample as a whole.
Note: unit % is implicit; provide only the numeric part.

Completed entries (count: 6):
Exercise: Supply growth inhibition value. Item: CC(NNC(=S)N1CCN(c2ccccn2)CC1)c1cccc[n+]1[O-] (configuration not stated)
Solution: 11.9

Exercise: Supply growth inhibition value. Item: "C=C1CC(OC(=O)c2ccc([N+](=O)[O-])cc2)C1"
Solution: -8.5

Exercise: Supply growth inhibition value. Item: "Cn1ccnc1CCc1ccc(F)cc1F"
Solution: -22.2

Exercise: Supply growth inhibition value. Item: "NCCNCCCNC(=O)c1cc(-c2ccccc2)nc2ccccc12"
Solution: -3.95

Exercise: Supply growth inhibition value. Item: O=c1c2n[nH]nc2nc2n1CC(c1ccccc1)S2 (configuration not stated)
Solution: -20.9

Exercise: Supply growth inhibition value. Item: "O=C(O)c1ccc(Cl)cc1C(=O)c1ccc(Cl)cc1"
Solution: -13.1

Let us move to another entry and its growth inhibition.
Exercise: Supply growth inhibition value. Item: "CCOC(=O)Cc1nc(Cl)c2c(C)c(C)sc2n1"
Solution: 40.5

----------
assay: NCI Yeast Anticancer Drug Screen. Data for the mec2-1 strain (AID 157)
stated_conditions: S. cerevisiae mec2-1 strain, at 50.0 µM, stronger effect = higher value
The panel holds about 79,000 compounds, 15% with a hit somewhere; the sample as a whole holds those more often.
yes (1) means recorded growth inhibition is -10% or above; no (0) means it is below -10%.

Previously resolved entries follow.
Exercise: Is growth inhibition for "COc1ccc(-c2nnc3cc(C)n4nnnc4n23)cc1OC" at or above -10%?
Solution: yes (1)

Exercise: Is growth inhibition for "S=C(NNC1=NCCN1)Nc1ccccc1" at or above -10%?
Solution: no (0)

Exercise: Is growth inhibition for "O=Cc1ccc(-c2cccc([N+](=O)[O-])c2)s1" at or above -10%?
Solution: yes (1)

Exercise: Is growth inhibition for "CSc1ncc(CO)c(Nc2ccc(F)cc2)n1" at or above -10%?
Solution: yes (1)

New cases:
Exercise: Is growth inhibition for "C[N+]1(C)CCN(S(=O)(=O)c2ccccc2)c2ccccc21" at or above -10%?
Solution: no (0)

----------
assay: NCI Yeast Anticancer Drug Screen. Data for the bub3 strain (AID 167)
stated_conditions: S. cerevisiae bub3 mutant strain, at 50.0 µM, stronger effect = higher value
The panel holds about 79,000 compounds, 15% with a hit somewhere; the sample as a whole holds those more often. Active and inactive are the calls of the source. Cut-off read from the data, not from the text of the source: active = growth inhibition above about 70%; inactive = the rest.
measured_property: growth inhibition

Completed entries (count: 10):
Exercise: Supply growth inhibition value. Item: "FC(F)(F)C[P+](c1ccccc1)(c1ccccc1)c1ccccc1"
Solution: 11.5% (inactive)

Exercise: Supply growth inhibition value. Item: "CCOC(=O)/C(Cc1ccccc1[N+](=O)[O-])=N/O"
Solution: 12.3% (inactive)

Exercise: Supply growth inhibition value. Item: CC1C(O)CC23COC(=O)C2=CCCC3C1(C)CCC1=CC(=O)OC1 (stereo not drawn)
Solution: -42% (inactive)

Exercise: Supply growth inhibition value. Item: OC1c2ccccc2CC12Cc1ccccc1C2 (stereo not drawn)
Solution: 26.6% (inactive)

Exercise: Supply growth inhibition value. Item: "O=P(O)(O)c1ccc2c(c1)OCCOCCOCCOCCO2"
Solution: -24.4% (inactive)

Exercise: Supply growth inhibition value. Item: "CC(=O)Nc1c(C)cc(S(=O)(=O)O)cc1C"
Solution: 28.6% (inactive)

Exercise: Supply growth inhibition value. Item: "N#C/C(C(=O)Nc1ccccc1)=C(/N)N1CCCC1"
Solution: -14.3% (inactive)

Exercise: Supply growth inhibition value. Item: "COC(=O)C1=NC(=S)N=C(C(=O)OC)C1(C)C(=O)c1ccc(Cl)cc1"
Solution: 2.75% (inactive)

Exercise: Supply growth inhibition value. Item: CCCCc1c(O)nc(NCCCC(N)C(=O)O)[nH]c1=O (stereo not drawn)
Solution: -4.6% (inactive)

Exercise: Supply growth inhibition value. Item: "Cc1cc(S(=O)(=O)O)cc(Cl)c1N"
Solution: -23.8% (inactive)

New cases:
Exercise: Supply growth inhibition value. Item: CCCCNCCCC(C(=O)O)c1ccccc1 (stereo not drawn)
Solution: -35.2% (inactive)

Exercise: Supply growth inhibition value. Item: CC1(C)CCCCC1/C=C/C(CC(O)(C(F)(F)F)C(F)(F)F)=N\Nc1ccc([N+](=O)[O-])cc1[N+](=O)[O-] (stereo not drawn)
Solution: 16.1% (inactive)

Exercise: Supply growth inhibition value. Item: "c1ccc2c(c1)c1c(n2CCOCCN2CCCC2)CCCC1"
Solution: 0% (inactive)

Exercise: Supply growth inhibition value. Item: "CCNS(=O)(=O)c1ccc2c(c1)nc(C)n2CC"
Solution: 23.6% (inactive)

Exercise: Supply growth inhibition value. Item: "NC(=O)c1ccc[n+](-c2ccc([N+](=O)[O-])cc2[N+](=O)[O-])c1"
Solution: 17.3% (inactive)

Exercise: Supply growth inhibition value. Item: CCOC(=O)CCCC(NC(=O)c1ccc(N2CCN(c3c(N)nc(N)nc3NC)CC2)cc1)C(=O)OCC (stereo not drawn)
Solution: -3.95% (inactive)

Exercise: Supply growth inhibition value. Item: "CCCCCCCCCCCCCCCCN1C(=O)c2ccccc2S1(=O)=O"
Solution: -2.2% (inactive)

Exercise: Supply growth inhibition value. Item: CC1(C)C2CCC(I)(C2)C1I (stereo not drawn)
Solution: 1.55% (inactive)

Exercise: Supply growth inhibition value. Item: "FC(F)(F)C1(F)C(F)(F)C(F)(F)C(F)(F)C(F)(F)C1(F)F"
Solution: -24.1% (inactive)

# credit: PubChem BioAssay (NCI)
